*1 amine or outer side, *2 acyl side, *3 side chain or, on linkers, in order; H or OH if unused. Where a SMILES comes first, the peptide text is derived from it. Bridges are numbered along the chain shown (N, C = ends). [ ]: non-standard residue; d: D form. 2Nal = N[C@@H](Cc1ccc2ccccc2c1)C(=O)O; AEF = NCCOc1ccc(C[C@H](N)C(=O)O)cc1; X1 = O=C(Cc1ccc(CN[*:1])cc1)[*:2]; 3Pal = N[C@@H](Cc1cccnc1)C(=O)O; αMeL = CC(C)C[C@](C)(N)C(=O)O; CH2COCH2 = O=C(C[*:1])C[*:2]; Dab = NCC[C@H](N)C(=O)O
Recorded IC50 values (human IL-23R (Homo sapiens, UniProt Q5VWK5)) are given below.
Quick note: number first, unit second.

Sample records with IC50:
CC(C)C[C@]1(C)NC(=O)[C@H](Cc2ccc3ccccc3c2)NC(=O)[C@H](Cc2ccc(OCCN)cc2)NC(=O)[C@@H]2CSCC(=O)CSC[C@H](NC(=O)[C@H](CO)NC(=O)Cc3ccc(cc3)CNC(=O)CC[C@@H](C(=O)N[C@@H](CCN)C(=O)N[C@@H](Cc3cccnc3)C(N)=O)NC1=O)C(=O)N[C@@H](Cc1c[nH]c3ccccc13)C(=O)N[C@@H](CCC(N)=O)C(=O)N2 [Ref 120, reference compound] ([X1]SCWQC[AEF][2Nal][αMeL]E[Dab][3Pal]-NH2; linker 3-6 via CH2COCH2; lactam N-10)	0.011 nM
CC(=O)N[C@H]1CCCCNC(=O)CC[C@@H](C(=O)N[C@@H](CCN)C(=O)N[C@@H](Cc2cccnc2)C(N)=O)NC(=O)[C@](C)(CC(C)C)NC(=O)[C@H](Cc2ccc3ccccc3c2)NC(=O)[C@H](Cc2ccc(OCCN)cc2)NC(=O)[C@@H]2CSCC(=O)CSC[C@H](NC(=O)[C@H]([C@@H](C)O)NC1=O)C(=O)N[C@@H](Cc1c[nH]c3ccccc13)C(=O)N[C@@H](CCC(N)=O)C(=O)N2 [Ref 155, reference compound] (Ac-KTCWQC[AEF][2Nal][αMeL]E[Dab][3Pal]-NH2; lactam 1-10; linker 3-6 via CH2COCH2)	0.0099 nM

Now look at this one.
## Input Enter recorded IC50 with human IL-23R (Homo sapiens, UniProt Q5VWK5) for CNC(=O)[C@H](Cc1cccnc1)NC(=O)[C@H](CCN)NC(=O)[C@@H]1CCC(=O)NCCCC[C@H]2CC(=O)NCC(=O)N[C@@H](Cc3c[nH]c4ccccc34)C(=O)N[C@@H](CCC(N)=O)C(=O)N[C@@H](CCC(=O)N2)C(=O)N[C@@H](Cc2ccc(OCCN)cc2)C(=O)N[C@@H](Cc2ccc3ccccc3c2)C(=O)N[C@@](C)(CC(C)C)C(=O)N1 here.
## Output 0.024 nM

====

Listed here: items and their measured Emax.
- TARGET OR SYSTEM: human IL-23R (Homo sapiens, UniProt Q5VWK5)
- Sequence (Q5VWK5 22-629): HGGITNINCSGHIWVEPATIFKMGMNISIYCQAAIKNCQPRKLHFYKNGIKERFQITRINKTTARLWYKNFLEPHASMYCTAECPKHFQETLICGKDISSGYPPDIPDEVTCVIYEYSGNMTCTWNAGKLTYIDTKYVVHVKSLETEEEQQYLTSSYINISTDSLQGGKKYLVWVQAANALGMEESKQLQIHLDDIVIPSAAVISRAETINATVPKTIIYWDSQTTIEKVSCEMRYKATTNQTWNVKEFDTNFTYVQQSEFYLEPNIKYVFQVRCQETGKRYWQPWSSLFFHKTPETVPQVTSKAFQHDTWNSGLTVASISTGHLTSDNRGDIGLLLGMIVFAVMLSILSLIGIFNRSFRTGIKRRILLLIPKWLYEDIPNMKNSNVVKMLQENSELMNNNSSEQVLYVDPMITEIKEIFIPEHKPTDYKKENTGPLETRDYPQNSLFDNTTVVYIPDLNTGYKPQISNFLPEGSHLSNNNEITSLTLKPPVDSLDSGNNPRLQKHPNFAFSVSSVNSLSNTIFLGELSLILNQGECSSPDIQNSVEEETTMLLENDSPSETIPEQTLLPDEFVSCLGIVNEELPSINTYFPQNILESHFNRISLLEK
- PROTOCOL: biochemical
- CONDITION PARAMETERS: read-out: % displacement (hIL-23R NIuc)
*1 amine or outer side, *2 acyl side, *3 side chain or, on linkers, in order; H or OH if unused. Where a SMILES comes first, the peptide text is derived from it. Bridges are numbered along the chain shown (N, C = ends). [ ]: non-standard residue; d: D form. 2Nal = N[C@@H](Cc1ccc2ccccc2c1)C(=O)O; AEF = NCCOc1ccc(C[C@H](N)C(=O)O)cc1; 3Pal = N[C@@H](Cc1cccnc1)C(=O)O; αMeL = CC(C)C[C@](C)(N)C(=O)O; Orn = NCCC[C@H](N)C(=O)O; Dab = NCC[C@H](N)C(=O)O; X6 = O=C(CN[*:2])[*:1]; βAla = NCCC(=O)O
The reply should contain only the number, in %.

Some solved cases for reference:
CC[C@H](C)[C@@H]1NC(=O)[C@@H]2CCCCNC(=O)CC[C@@H](C(=O)NCCCCCCc3cccnc3)NC(=O)[C@](C)(C(C)C)NC(=O)[C@H](Cc3ccc4ccccc4c3)NC(=O)[C@H](Cc3ccc(OCCN)cc3)NC(=O)[C@H](CCC(=O)N2)NC(=O)[C@H](CCC(N)=O)NC(=O)[C@H](Cc2c[nH]c3ccccc23)NC(=O)[C@H](C(C)C)NC1=O [Compound 29]	95
CC[C@H](C)[C@@H]1NC(=O)[C@@H]2CCCCNC(=O)CC[C@@H](C(=O)N3CCNC3C(=O)N[C@@H](Cc3cccnc3)C(=O)NC)NC(=O)[C@](C)(CC(C)C)NC(=O)[C@H](Cc3ccc4ccccc4c3)NC(=O)[C@H](Cc3ccc(OCCN)cc3)NC(=O)[C@H](CCC(=O)N2)NC(=O)[C@H](CCC(N)=O)NC(=O)[C@H](Cc2c[nH]c3ccccc23)NC(=O)[C@H](C(C)C)NC1=O (stereo partly shown) [Compound 72]	97
COc1ccc(C[C@@H]2NC(=O)[C@@H]3CCC(=O)N[C@@H](CCCCNC(=O)CC[C@@H](C(=O)N[C@@H](CCCCNC(=O)Cc4ccnc(F)c4)C(N)=O)NC(=O)[C@](C)(CC(C)C)NC(=O)[C@H](Cc4ccc5ccccc5c4)NC2=O)C(=O)N[C@@H]([C@@H](C)O)C(=O)N[C@@H](C(C)C)C(=O)N[C@@H](Cc2c[nH]c4ccccc24)C(=O)N[C@@H](CCC(N)=O)C(=O)N3)cc1 [Compound 57]	93
CNC(=O)[C@H](Cc1cccnc1)NC(=O)[C@H](CCN)NC(=O)[C@@H]1CCC(=O)NCCCC[C@@H]2NC(=O)CC[C@H](NC(=O)[C@H](CCC(N)=O)NC(=O)[C@H](Cc3c[nH]c4ccccc34)NC(=O)[C@H]([C@@H](C)O)NC2=O)C(=O)N[C@@H](Cc2ccc(OCCN)cc2)C(=O)N[C@@H](Cc2ccc3ccccc3c2)C(=O)N[C@@](C)(CC(C)C)C(=O)N1 [Compound 36] (KTWQE[AEF][2Nal][αMeL]E[Dab][3Pal]-NHMe; lactam 1-9, N-5)	100
CNC(=O)[C@H](Cc1cccnc1)NC(=O)[C@H](CCN)NC(=O)[C@@H]1CCC(=O)NCC(=O)NCCCC[C@@H]2NC(=O)CC[C@H](NC(=O)[C@H](CCC(N)=O)NC(=O)[C@H](Cc3c[nH]c4ccccc34)NC2=O)C(=O)N[C@@H](Cc2ccc(OCCN)cc2)C(=O)N[C@@H](Cc2ccc3ccccc3c2)C(=O)N[C@@](C)(CC(C)C)C(=O)N1 [Compound 46] (KWQE[AEF][2Nal][αMeL]E[Dab][3Pal]-NHMe; linker 1-8 via X6; lactam N-4)	104
CNC(=O)[C@H](Cc1cccnc1)NC(=O)[C@H](CCN)NC(=O)[C@@H]1CCC(=O)N[C@H]2CCNC(=O)CC[C@H](NC(=O)[C@H](CCC(N)=O)NC(=O)[C@H](Cc3c[nH]c4ccccc34)NC2=O)C(=O)N[C@@H](Cc2ccc(OCCN)cc2)C(=O)N[C@@H](Cc2ccc3ccccc3c2)C(=O)N[C@@](C)(CC(C)C)C(=O)N1 [Compound 103]	101

## Input Query Emax for COc1ccc(C[C@@H]2NC(=O)[C@@H]3CCC(=O)N[C@@H](CCCCNC(=O)CC[C@@H](C(=O)N[C@@H](CCCCNC(=O)Cc4ccncc4)C(N)=O)NC(=O)[C@](C)(CC(C)C)NC(=O)[C@H](Cc4ccc5ccccc5c4)NC2=O)C(=O)N[C@@H]([C@@H](C)O)C(=O)N[C@@H](C(C)C)C(=O)N[C@@H](Cc2c[nH]c4ccccc24)C(=O)N[C@@H](CCC(N)=O)C(=O)N3)cc1 [Compound 54]
## Output 105

## Input Fill in Emax for record CCCOc1ccc(C[C@@H]2NC(=O)[C@@H]3CCC(=O)N[C@@H](CCCCNC(=O)CC[C@@H](C(=O)NCCCCc4cccnc4)NC(=O)[C@](C)(CC(C)C)NC(=O)[C@H](Cc4ccc5ccccc5c4)NC2=O)C(=O)N[C@@H]([C@@H](C)CC)C(=O)N[C@@H](C(C)C)C(=O)N[C@@H](Cc2c[nH]c4ccccc24)C(=O)N[C@@H](CCC(N)=O)C(=O)N3)cc1 [Compound 32]
## Output 99

## Input Tell me its Emax given CNC(=O)[C@H](Cc1cccnc1)NC(=O)[C@H](CCN)NC(=O)[C@@H]1CCC(=O)NCCC[C@@H]2NC(=O)CC[C@H](NC(=O)[C@H](CCC(N)=O)NC(=O)[C@H](Cc3c[nH]c4ccccc34)NC(=O)CCNC2=O)C(=O)N[C@@H](Cc2ccc(OCCN)cc2)C(=O)N[C@@H](Cc2ccc3ccccc3c2)C(=O)N[C@@](C)(CC(C)C)C(=O)N1 [Compound 91] ([Orn][βAla]WQE[AEF][2Nal][αMeL]E[Dab][3Pal]-NHMe; lactam 1-9, N-5) as the entry.
## Output 100

## Input Complete the entry with Emax for CNC(=O)[C@H](Cc1cccnc1)NC(=O)[C@H](CCN)NC(=O)[C@@H]1CCC(=O)NCCCC[C@@H]2NC(=O)CC[C@H](NC(=O)[C@H](CCC(N)=O)NC(=O)[C@H](Cc3c[nH]c4ccccc34)NC(=O)CCNC2=O)C(=O)N[C@@H](Cc2ccccn2)C(=O)N[C@@H](Cc2ccc3ccccc3c2)C(=O)N[C@@](C)(CC(C)C)C(=O)N1 [Compound 84]
## Output 97
